Assay: amyloid nucleation score (Sup35N fusion, yeast selection) (log enrichment); library NNK2; higher = more nucleation; inactive = no reads after selection;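 also: zero at mode of non-aggregating sequences after 7 days selection at 30°C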
Entries annotated with measured amyloid nucleation score
Answer with a bare number; do not write a unit.

These recorded examples may help you get a feel for the data.
>>> readout_value("RTHTKLGT")
0.462
>>> readout_value("LYSMSHCWHVQCWEFDSYVG")
-0.174
>>> readout_value("ANGLVPYVTFLVLYALHTGT")
1.41
>>> readout_value("ASELLGYMCDIVASLGVVRY")
0.747
>>> readout_value("VDWRNFIGLLNLTDCSDRYH")
-0.744
>>> readout_value("LTSFGDEC")
-0.153
>>> readout_value("STPLGPFLYF")
-0.961

Inquiry: Please give the measured amyloid nucleation score for this sequence: SVSLNCSPLFFYFRRYKVSR
Reply text: 6.05
